Just for reference, paper PMC12065821 is where these values come from.

# ASSAY_NAME: Kidney PK of CMS/CMS-E2 and formed colistin/colistin B
# Type: in vivo, rats
# PROTOCOL_CONDITIONS: male, Sprague-Dawley, rat, kidney (cortex) / plasma, ip, 10 mg/kg CBA, Kidney/plasma ratio of AUC0-inf, colistin/colistin B, rats; single i.p. CMS 10 mg/kg CBA
Where a SMILES comes first, the peptide text is derived from it. Bridges are numbered along the chain shown (N, C = ends). [ ]: non-standard residue; d: D form. The star is where a group is joined. X1 = CC[C@H](C)CCCCC(=O)*; Dab = NCC[C@H](N)C(=O)O
MEASUREMENT_LABEL: Kp
Returns: the value as a bare number; no unit string appended.

Noted for CC[C@H](C)CCCCC(=O)N[C@@H](CCN)C(=O)N[C@H](C(=O)N[C@@H](CCN)C(=O)N[C@H]1CCNC(=O)[C@H]([C@@H](C)O)NC(=O)[C@H](CCN)NC(=O)[C@H](CCN)NC(=O)[C@H](CC(C)C)NC(=O)[C@@H](CC(C)C)NC(=O)[C@H](CCN)NC1=O)[C@@H](C)O [colistin, Colistin] (X1-[Dab]T[Dab][Dab][Dab][dL]L[Dab][Dab]T; lactam 4-C) : its Kp reads 31.6

---

# ASSAY_NAME: Kidney PK of CMS/CMS-E2 and formed colistin/colistin B
# Type: in vivo, rats
# PROTOCOL_CONDITIONS: male, Sprague-Dawley, rat, kidney cortex, ip, 20 mg/kg CBA; SD
Where a SMILES comes first, the peptide text is derived from it. Bridges are numbered along the chain shown (N, C = ends). [ ]: non-standard residue; d: D form. The star is where a group is joined. X1 = CC[C@H](C)CCCCC(=O)*; Dab = NCC[C@H](N)C(=O)O
MEASUREMENT_LABEL: tissue level at time at 24 h (ng/g)
Output spec: scalar in ng/g, unitless text.

Noted for CC[C@H](C)CCCCC(=O)N[C@@H](CCN)C(=O)N[C@H](C(=O)N[C@@H](CCN)C(=O)N[C@H]1CCNC(=O)[C@H]([C@@H](C)O)NC(=O)[C@H](CCN)NC(=O)[C@H](CCN)NC(=O)[C@H](CC(C)C)NC(=O)[C@@H](CC(C)C)NC(=O)[C@H](CCN)NC1=O)[C@@H](C)O [colistin, Colistin] (X1-[Dab]T[Dab][Dab][Dab][dL]L[Dab][Dab]T; lactam 4-C) : its tissue level at time at 24 h reads 5970

---

# ASSAY_NAME: Kidney PK of CMS/CMS-E2 and formed colistin/colistin B
# Assay type: in vivo, rats
# PROTOCOL_CONDITIONS: male, Sprague-Dawley, rat, kidney cortex, ip, 40 mg/kg CBA; SD
Where a SMILES comes first, the peptide text is derived from it. Bridges are numbered along the chain shown (N, C = ends). [ ]: non-standard residue; d: D form. The star is where a group is joined. Heptanoyl(6-Me) = CC(C)CCCCC(=O)*; Dab = NCC[C@H](N)C(=O)O
MEASUREMENT_LABEL: tissue level at time at 24 h (ng/g)
Output spec: scalar in ng/g, unitless text.

Noted for CC(C)CCCCC(=O)N[C@@H](CCN)C(=O)N[C@H](C(=O)N[C@@H](CCN)C(=O)N[C@H]1CCNC(=O)[C@H]([C@@H](C)O)NC(=O)[C@H](CCN)NC(=O)[C@H](CCN)NC(=O)[C@H](CC(C)C)NC(=O)[C@@H](CC(C)C)NC(=O)[C@H](CCN)NC1=O)[C@@H](C)O [colistin B] ({Heptanoyl(6-Me)}-[Dab]T[Dab][Dab][Dab][dL]L[Dab][Dab]T; lactam 4-C) : its tissue level at time at 24 h reads 11500
